system tested: Protein Tat (Human immunodeficiency virus type 1 group M subtype B (isolate HXB2))
assay text: inhibitors of Tat binding to TAR RNA, dose response, counter-screen for Vif-APOBEC3G degradation inhibitor project, biochemical, fluorescence polarization, FAM-labeled TAR RNA (AID 1117361)
measure name: pIC50
Conceptually, pIC50 converts a concentration in mol/L into minus its log10.

compound	pIC50
COc1ccc2[nH]c3c4c(ccc3c2c1)C(=O)C=CC4=O	4.61

INPUT: Could you please provide reported pIC50 for `Cn1cccc1/C=C1\CCC/C(=C\c2cccn2C)C1=O` ? Thanks!
OUTPUT: 4.77

INPUT: Answer with the recorded pIC50 for the compound listed here: `Cc1ccc(NC(=O)CN(C)C(=O)c2cccc(-n3cccc3)c2)cc1`
OUTPUT: 4.42

INPUT: Provide pIC50 value for the following compound: `O=C(COc1ccccc1Cl)c1ccc[nH]1`
OUTPUT: 4.83

----------
system tested: Protein Tat (Human immunodeficiency virus type 1 group M subtype B (isolate HXB2)) (UniProt P04608)
Sequence (P04608 whole entry, looked up): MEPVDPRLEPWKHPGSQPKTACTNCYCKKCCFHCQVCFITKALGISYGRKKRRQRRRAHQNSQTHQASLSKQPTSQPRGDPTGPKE
assay text: inhibitors of Tat binding to TAR RNA, dose response, counter-screen for Vif-APOBEC3G degradation inhibitor project, biochemical, fluorescence polarization, FAM-labeled TAR RNA (AID 1117361)
pIC50: −log10 of the molar value.
Label True when pIC50 >= 5; otherwise False.

structure smiles string	assigned label
CCC(=O)NC1=C(Cl)C(=O)C(NC(=O)CC)=C(Cl)C1=O	False
CCN1CCN(C2=NC(=O)/C(=C/c3ccc(C)o3)S2)CC1	True
CCOc1cccc(=O)c2c(C)oc(C)c12	False
S=c1[nH]nc(COc2ccc3c(c2)OCO3)n1-c1ccccc1	True

For the next question, use this compound.
INPUT: Does the compound `CCc1cc(=O)oc2cc(C)c(CN3CCCC3)c(O)c12` have recorded pIC50 that is 5 or more?
OUTPUT: True

----------
system tested: Protein Tat (Human immunodeficiency virus type 1 group M subtype B (isolate HXB2)) (UniProt P04608)
assay text: inhibitors of Tat binding to TAR RNA, dose response, counter-screen for Vif-APOBEC3G degradation inhibitor project, biochemical, fluorescence polarization, FAM-labeled TAR RNA (AID 1117361)
Reported IC50 values for the following molecules.

Example entries begin here.
molecule	IC50
CNc1ccc(Br)cc(C(=O)/C=C/c2ccc(Cl)cc2Cl)c1=O	9.56 µM
O=C(CCCCCN1C(=O)CCC1=O)Nc1ccc(Cl)c(C(F)(F)F)c1	16.4 µM
CCCOc1ccc(Cc2nn3c(=O)/c(=C/c4ccco4)sc3nc2=O)cc1	2.68 µM
CC(=O)N1CCN(c2nc(-c3ccco3)c3c(c2C#N)CC(C)(C)SC3)CC1	58.8 µM
Cc1c(Cl)cccc1NS(=O)(=O)c1ccc2c(c1)C1C=CCC1C(c1ccc(C(=O)O)cc1)N2 (centres undefined)	8.54 µM

Proceed to the following item.
INPUT: Return IC50 (reported value) for this molecule: `O=C1S/C(=C\C=C\c2ccco2)C(=O)N1c1ccc(O)cc1`
OUTPUT: 2 µM

----------
system tested: Protein Tat (Human immunodeficiency virus type 1 group M subtype B (isolate HXB2)) (UniProt P04608)
assay text: inhibitors of Tat binding to TAR RNA, dose response, counter-screen for Vif-APOBEC3G degradation inhibitor project, biochemical, fluorescence polarization, FAM-labeled TAR RNA (AID 1117361)
measure name: pIC50
Quick note: pIC50 values are minus log10 of concentrations in mol/L.

compound	obs value
CCCCn1c(SCC(=O)NCc2ccco2)nc2ccc(N3CCOCC3)cc2c1=O	4.64
O=C1C=CC(=O)c2c(O)c(CO)c(CO)c(O)c21	5.46
Cc1ccc(/C=C/C(=O)Nc2ccc([N+](=O)[O-])c(NC(=O)/C=C/c3ccc(C)o3)c2)o1	5.14

# input for lookup
INPUT: Give the reported value of pIC50 for this record: CCC1S/C(=C(\C#N)C(=O)NCc2ccco2)N(c2ccc(F)cc2)C1=O (stereo unspecified)
OUTPUT: 4.83

Values were extracted from PubChem BioAssay AID1117361.
